Data origin: ChEMBL document CHEMBL3425405

assay: Binding affinity to 5'-end biotinylated ADAM10 A10-RNA QGRS (unknown origin) by surface plasmon resonance assay method
pKd: −log10 of the molar value.
Known pKd of a selection of compounds
Measured parameter: pKd

- COc1cc(/C=C/c2ccc3ccccc3[n+]2C)ccc1N1CCOCC1: 4.55
- COc1cc(/C=C/c2cc(N3CCN(C)CC3)c3ccccc3[n+]2C)cc(OC)c1OC: 4.96
- CN1CCN(c2cc(/C=C/c3ccccc3)[n+](C)c3ccccc23)CC1: 4.48
- COc1cc(/C=C/c2ccc3ccccc3[n+]2C)ccc1F: 4.74
- COc1cc(/C=C/c2cc(N3CCN(C)CC3)c3ccccc3[n+]2C)ccc1F: 4.93
- C[n+]1c(/C=C/c2ccc(N3CCOCC3)cc2)ccc2ccccc21: 4.80
- C[n+]1c(/C=C/c2ccc(O)cc2)ccc2ccccc21: 4.80
- CN1CCN(c2cc(/C=C/c3ccc(O)cc3)[n+](C)c3ccccc23)CC1: 5.08
- COc1cc(/C=C/c2cc(N3CCN(C)CC3)c3ccccc3[n+]2C)ccc1N1CCOCC1: 4.48
- CN1CCN(c2cc(/C=C/c3ccc(N4CCOCC4)cc3)[n+](C)c3ccccc23)CC1: 5.59
- C[n+]1c(/C=C/c2cc([N+](=O)[O-])ccc2O)ccc2ccccc21: 4.33
- CN1CCN(c2cc(/C=C/c3cc4ccccc4[nH]3)[n+](C)c3ccccc23)CC1: 5.74
- COc1cc(/C=C/c2ccc3ccccc3[n+]2C)cc(OC)c1O: 4.69
- CCn1c2ccccc2c2cc(/C=C/c3cc(N4CCN(CCCN(C)C)CC4)c4ccccc4[n+]3C)ccc21: 4.35
- CCn1c2ccccc2c2cc(/C=C/c3cc(N4CCN(C)CC4)c4ccccc4[n+]3C)ccc21.[I-]: 5.21
